ASSAY PROCEDURE: Oral bioavailability in rat
Type: ADME, organism-based
CONDITION NOTES: in vivo
OUTCOME MEASURE: bioavailability (%)
Please reply with the bare figure in % and do not write the unit itself.

CN[C@@H](C(=O)N(C)[C@H]1CC[C@@]2(C)C(=CC[C@H]3[C@@H]4CC[C@@H]5[C@H](C)N(C)C[C@@]54CC[C@@H]32)C1)C(C)C :: 65

Then there is this compound:
May I ask what bioavailability has been recorded for `C[C@H]1[C@H]2CC[C@H]3[C@@H]4CC=C5C[C@@H](N(C)C(=O)Cc6cccs6)CC[C@]5(C)[C@H]4CC[C@]23CN1C` ?
4.5

* * *

TESTED SYSTEM: Histamine H3 receptor (Homo sapiens)
Sequence (Q9Y5N1 whole entry): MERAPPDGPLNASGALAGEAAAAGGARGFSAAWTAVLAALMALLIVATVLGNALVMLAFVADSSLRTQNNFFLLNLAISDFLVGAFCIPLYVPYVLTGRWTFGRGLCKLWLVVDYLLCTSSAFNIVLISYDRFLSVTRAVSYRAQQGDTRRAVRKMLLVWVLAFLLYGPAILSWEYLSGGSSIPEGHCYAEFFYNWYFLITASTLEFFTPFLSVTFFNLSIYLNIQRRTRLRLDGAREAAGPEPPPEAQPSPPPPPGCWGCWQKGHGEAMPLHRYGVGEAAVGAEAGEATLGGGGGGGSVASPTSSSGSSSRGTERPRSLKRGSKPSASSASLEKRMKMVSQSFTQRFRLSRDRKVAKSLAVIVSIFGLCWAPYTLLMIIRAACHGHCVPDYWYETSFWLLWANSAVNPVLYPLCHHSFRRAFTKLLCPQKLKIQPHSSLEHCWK
ASSAY PROCEDURE: Displacement of [3H]NAMH from histamine H3 receptor in human cortex
OUTCOME MEASURE: pKi
As a rule, pKi stands for the negative log10 of the concentration, concentration in M.

State its pKi on Histamine H3 receptor (Homo sapiens): C[C@H]1[C@H]2CC[C@H]3[C@@H]4CC=C5C[C@@H](N(C)C)CC[C@]5(C)[C@H]4CC[C@]23CN1C [CONESSINE]
8.46

* * *

TESTED SYSTEM: Estrogen receptor (Homo sapiens, UniProt P03372)
Sequence (P03372 whole entry): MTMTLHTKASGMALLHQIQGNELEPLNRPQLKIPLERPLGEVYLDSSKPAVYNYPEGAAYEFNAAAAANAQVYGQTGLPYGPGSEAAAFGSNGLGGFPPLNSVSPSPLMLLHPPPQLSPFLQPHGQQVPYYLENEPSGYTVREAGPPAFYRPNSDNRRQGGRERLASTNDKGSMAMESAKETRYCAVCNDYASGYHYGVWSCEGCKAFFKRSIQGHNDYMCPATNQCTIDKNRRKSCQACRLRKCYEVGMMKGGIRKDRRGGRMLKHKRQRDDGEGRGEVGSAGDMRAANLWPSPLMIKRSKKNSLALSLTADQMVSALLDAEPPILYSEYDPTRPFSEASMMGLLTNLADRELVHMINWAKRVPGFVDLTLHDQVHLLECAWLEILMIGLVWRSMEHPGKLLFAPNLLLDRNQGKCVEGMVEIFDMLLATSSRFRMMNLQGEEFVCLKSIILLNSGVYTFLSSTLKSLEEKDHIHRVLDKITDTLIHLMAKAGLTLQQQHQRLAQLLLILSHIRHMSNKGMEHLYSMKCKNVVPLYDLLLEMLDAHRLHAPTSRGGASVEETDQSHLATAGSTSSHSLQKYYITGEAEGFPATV
ASSAY PROCEDURE: Binding affinity at estrogen receptor
OUTCOME MEASURE: Ki

Report Ki for `CN[C@@H](C(=O)N(C)[C@H]1CC[C@@]2(C)C(=CC[C@H]3[C@@H]4CC[C@@H]5[C@H](C)N(C)C[C@@]54CC[C@@H]32)C1)C(C)C` tested on Estrogen receptor (Homo sapiens, UniProt P03372).
> 30 µM

* * *

TESTED SYSTEM: Histamine H3 receptor (Homo sapiens)
ASSAY PROCEDURE: Displacement of [3H]NAMH from human full length histamine H3 receptor expressed in rat C6 cells
Type: cell-based
OUTCOME MEASURE: pKi
# pKi is unitless: minus log10 of the molar concentration; print number only

Examples from the recorded data:
C[C@H]1[C@H]2CC[C@H]3[C@@H]4CC=C5C[C@@H](N(C)C(=O)c6ccccc6)CC[C@]5(C)[C@H]4CC[C@]23CN1C :: 7.91
C[C@H]1[C@H]2CC[C@H]3[C@@H]4CC=C5C[C@@H](N(C)S(=O)(=O)c6ccccc6)CC[C@]5(C)[C@H]4CC[C@]23CN1C :: 8.11

Next compound, pKi to be filled in.
Reported pKi, compound `C[C@H]1[C@H]2CC[C@H]3[C@@H]4CC=C5C[C@@H](N(C)C(=O)c6ccncc6)CC[C@]5(C)[C@H]4CC[C@]23CN1C` : ____
7.79
